system: barnyardgrass; experiment: Test A pre-/postemergence herbicide test; assay type: in vivo, Echinochloa crus-galli; conditions: Postemergence, 1000 g ai/ha; 0 to 100 scale (0 no effect, 100 complete control)
measuredMetric: Plant response rating, Barnyardgrass

{"columns": ["molecule", "result"],
 "data": [
  ["O=C1NCC(c2ccc(F)c(F)c2)C1C(=O)Nc1cccc(Cl)c1 (racemic)", 50],
  ["O=C1NCC(c2cccc(-c3ccccc3C(F)(F)F)c2)C1C(=O)Nc1ccccc1C(F)(F)F (stereo not shown)", 20],
  ["O=C1NCC(c2ccc(F)c(F)c2)C1C(=O)Nc1ccncc1F (stereo not shown)", 0],
  ["O=C1NCC(c2ccc(F)c(F)c2)C1C(=O)Nc1ccc(F)cc1 (racemic)", 90],
  ["CS(=O)(=O)c1ccccc1NC(=O)C1C(=O)NCC1c1ccc(F)c(F)c1 (racemic)", 90],
  ["Cc1ccccc1NC(=O)C1C(=O)NCC1c1ccc(F)c(F)c1 (racemic)", 90],
  ["O=C1NCC(c2ccc(Cl)c(Cl)c2)C1C(=O)Nc1ccccc1[N+](=O)[O-] (stereo not shown)", 50]
]}

* * *

// Plant response rating, Foxtail, Giant lookup, one value per entry
test system: foxtail, giant; test: Test C pre-/postemergence herbicide test; format: in vivo, Setaria faberii; conditions: Postemergence, 62 g ai/ha; scale 0 to 100 (0 no effect, 100 complete control)

{"columns": ["molecule", "Plant response rating, Foxtail, Giant"],
 "data": [
  ["O=C1NCC(c2cc(F)c(F)c(F)c2)C1C(=O)Nc1cccc(F)c1F (stereo not shown)", 20],
  ["Cc1ccccc1NC(=O)C1C(=O)NCC1c1cccc(C(F)(F)F)c1 (racemic)", 15],
  ["O=C1NCC(c2ccc(C(F)(F)F)cc2)C1C(=O)Nc1cccc(F)c1F (stereo not shown)", 0],
  ["O=C1NCC(c2ccc(F)c(Cl)c2)C1C(=O)Nc1ccccc1F (stereo not shown)", 15]
]}

* * *

test system: corn; test: Test A pre-/postemergence herbicide test; format: in vivo, Zea mays; conditions: Postemergence, 125 g ai/ha; 0 to 100 scale, 0 no effect, 100 complete control
Listing of recorded Plant response rating, Corn by entry.
measuredMetric: Plant response rating, Corn

{"columns": ["compound", "result"],
 "data": [
  ["O=C1NCC(c2ccc(Cl)c(F)c2)C1C(=O)Nc1cccc(F)c1F (centres unmarked)", 0],
  ["O=C1NCC(c2ccc(F)c(F)c2)C1C(=O)Nc1cccc(F)c1F (racemic)", 0],
  ["O=C1NCC(c2cc(F)c(F)c(F)c2)C1C(=O)Nc1cccc(F)c1F (centres unmarked)", 0],
  ["O=C1NCC(c2ccc(F)c(F)c2)C1C(=O)Nc1ccccc1C(F)(F)F (racemic)", 0],
  ["Cc1cc(C2CNC(=O)C2C(=O)Nc2ccc(F)c(F)c2F)ccc1F (racemic)", 0],
  ["Cc1cc(C2CNC(=O)C2C(=O)Nc2ccccc2F)ccc1F (racemic)", 0],
  ["Cc1ccc(C2CNC(=O)C2C(=O)Nc2ccc(F)cc2F)cc1F (racemic)", 0],
  ["Cc1ccc(C2CNC(=O)C2C(=O)Nc2ccc(F)cc2F)cc1 (racemic)", 0]
]}

* * *

test system: kochia; assay: Test A pre-/postemergence herbicide test; assay type: in vivo, Kochia scoparia; conditions: Postemergence, 125 g ai/ha; 0 to 100 scale, 0 is no effect, 100 is complete control
Known Plant response rating, Kochia of a selection of compounds

{"columns": ["compound", "Plant response rating, Kochia"],
 "data": [
  ["Cc1ccc(NC(=O)C2C(=O)NCC2c2cccc(C(F)(F)F)c2)cc1C(F)(F)F (racemic)", 0],
  ["Cc1ccccc1NC(=O)C1C(=O)NCC1c1ccc(OC(F)F)cc1 (centres unmarked)", 0],
  ["CC(C)N1CC(c2ccc(F)cc2)C(C(=O)Nc2cccc(F)c2F)C1=O (centres unmarked)", 0],
  ["CCCN1CC(c2ccc(C(F)(F)F)cc2)C(C(=O)Nc2cccc(F)c2F)C1=O (centres unmarked)", 0],
  ["O=C1NC[C@H](c2cccc(C(F)(F)F)c2)[C@H]1C(=O)Nc1cccc(F)c1F", 70],
  ["CCCN1CC(c2ccc(C(F)(F)F)cc2)C(C(=O)Nc2ccccc2F)C1=O (centres unmarked)", 10],
  ["O=C1NCC(c2ccc(C(F)(F)F)cc2)C1C(=O)Nc1cccc(F)c1F (racemic)", 80],
  ["O=C1NCC(c2ccc(F)cc2)C1C(=O)Nc1ccccc1F (centres unmarked)", 0],
  ["O=C1NCC(c2ccc(Cl)c(Cl)c2)C1C(=O)Nc1ccccc1Cl (racemic)", 0],
  ["O=C1NCC(c2ccc(Cl)c(Cl)c2)C1C(=O)Nc1ccc(F)cc1F (racemic)", 20],
  ["O=C1NC[C@H](c2cccc(C(F)(F)F)c2)[C@H]1C(=O)Nc1ccccc1F", 20],
  ["O=C1NCC(c2cccc(C(F)F)c2)C1C(=O)Nc1ccccc1F (racemic) [Compound 163]", 0],
  ["O=C1NCC(c2cccc(C(F)F)c2)C1C(=O)Nc1ccccc1F (racemic) [Compound 210]", 20],
  ["O=C1NCC(c2cccc(C(F)F)c2)C1C(=O)Nc1ccccc1C(F)(F)F (racemic)", 0]
]}
